Here the recorded self-splicing fitness (ln) is given for each entry.
test.method.notes: self-splicing fitness, log relative to wild type (ln ratio); higher = more splicing; Tetrahymena group I intron in knt gene, E. coli kanamycin selection, DiMSum; sequences stand for … in CUCUCU…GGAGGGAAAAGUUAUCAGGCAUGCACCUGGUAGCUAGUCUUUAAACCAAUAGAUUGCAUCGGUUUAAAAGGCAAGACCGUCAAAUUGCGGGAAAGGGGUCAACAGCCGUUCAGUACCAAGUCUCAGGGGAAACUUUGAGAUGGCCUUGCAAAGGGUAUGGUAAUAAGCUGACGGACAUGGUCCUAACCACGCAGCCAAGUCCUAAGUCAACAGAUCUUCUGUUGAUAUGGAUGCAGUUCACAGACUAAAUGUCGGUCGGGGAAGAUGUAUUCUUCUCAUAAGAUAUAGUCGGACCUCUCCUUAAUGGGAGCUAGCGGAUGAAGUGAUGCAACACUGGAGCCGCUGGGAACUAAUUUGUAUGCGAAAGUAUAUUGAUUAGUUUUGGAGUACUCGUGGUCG;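 note: selection with 25 µg/mL kanamycin versus none on LB agar overnight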
measurement.parameters: 30 °C
// no unit string in output, number only

Reference set (3 entries):
[
  {
    "polymer.sequence": "UCAUAGCAAUAUUACGAGAU",
    "self-splicing fitness (ln)": -3.85
  },
  {
    "polymer.sequence": "UUAUAGCAAUAUUACGUUGA",
    "self-splicing fitness (ln)": -2.54
  },
  {
    "polymer.sequence": "GUUAAGCAAUAUUACGCAAA",
    "self-splicing fitness (ln)": -2.21
  }
]

Query (sequence): `UUAGAGCAAUAUUACGCCAA` ; field requested: self-splicing fitness (ln)
-0.503

// lookup self-splicing fitness (ln) for `AAGGAGCAAUAUUACGUUUC`
-3.26

Any idea what self-splicing fitness (ln) was measured for `GCUAAGCAAUAUUACGGAGG` ?
-1.11

Need self-splicing fitness (ln), item `GCUCAGCAAUAUUACGGGGU`
-3.51

What value of self-splicing fitness (ln) has been recorded for this entry: `AGAGAGCAAUAUUACGGGGA`
-2.46

Tell me the measured self-splicing fitness (ln) of `AAUUAGCAAUAUUACGCGAG` , please.
-1.84

# query: self-splicing fitness (ln) of entry `ACUGAGCAAUAUUACGGAAG`
-2.52

What value of measured self-splicing fitness (ln) is listed for `AUAGAGCAAUAUUACGCACA` ?
-0.178

self-splicing fitness (ln) lookup needed for `UGCCAGCAAUAUUACGGUAA` , thanks.
-1.15

Endpoint output: self-splicing fitness (ln) of `CUUCAGCAAUAUUACGUACG` . Value?
-0.327

I'd like to know its self-splicing fitness (ln). The sequence in question is `CUAUAGCAAUAUUACGUGAU`
-1.33

If you can, please state the reported self-splicing fitness (ln) value of `GUGCAGCAAUAUUACGCAAA` .
-0.928

// lookup self-splicing fitness (ln) for `GAGAAGCAAUAUUACGCUAA`
-2.47

I would be grateful if you could share the reported self-splicing fitness (ln) for `ACGAAGCAAUAUUACGGGCC` .
-2.74

# query: self-splicing fitness (ln) of entry `AAAGAGCAAUAUUACGAAAU`
-2.67

Given the sequence `AGUAAGCAAUAUUACGCCGA` , what is its reported self-splicing fitness (ln)?
-1.31

GET /values?readout=self-splicing fitness (ln)&item= `GUCUAGCAAUAUUACGACAU`
-0.643
